Biological target: T1, human PVRIG on cells (human, UniProt Q6DKI7 1-326)
T1 construct: whole, on cells; over-expressed on HEK cells or endogenous on Jurkat and CD8 T cells; also called hPVRIG; HEK hPVRIG cells
T1 sequence (looked up): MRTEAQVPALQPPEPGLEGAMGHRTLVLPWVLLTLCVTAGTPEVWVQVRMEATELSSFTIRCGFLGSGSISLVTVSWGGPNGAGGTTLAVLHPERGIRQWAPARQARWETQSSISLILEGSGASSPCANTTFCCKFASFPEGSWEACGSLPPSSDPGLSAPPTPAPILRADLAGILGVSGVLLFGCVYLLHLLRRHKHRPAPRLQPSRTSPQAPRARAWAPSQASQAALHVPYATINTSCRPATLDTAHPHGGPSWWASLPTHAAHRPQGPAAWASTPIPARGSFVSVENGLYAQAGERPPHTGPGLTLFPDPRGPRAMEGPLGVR
Test: FACS, human PBMC, CD56 int. NK cells, 10ug/ml
I'd appreciate it if you could supply gMFIr Human CD56 int. NK values for the items below.
Answers are plain numbers.

Reference set (2 entries):
binder="CHA.7.528 (antibody, V domains shown) VH: EVQVQQSGPELVKPGASVKISCKASGYTFTKSNMHWVKQSHGKSLEWIGYIYPYNGGTGYNQNFKSKATLTVDISSSTAYMELRSLTLEDSAVYLCAREADYYGNRGQFDYWGQGTLVTVSA VL: DIQMTQSPASLSVSVGETVTITCRASDNIFSNLAWYHQKQGKSPHLLVYGATNLADGVPSRFSGSGSGTQYSLKINSLQSEDFGDYYCQHFWGTPYTFGGGTKLEIK" recorded_result=3.08
binder="CHA.7.547 (antibody, V domains shown) VH: QIQLVQSGPDLKKPGETVKISCKASGYTFTTYGMSWVKQAPGRGLKWMGWINTYSGVSTFPDDFKGRFAFSLETSASTAYLQINNLKNEDSATYFCARLGMGSTTGAGYFDVWGTGTTVTVSS VL: ENVLTQSPAIMSASLGEKVTLSCRASSSVNYMYWYQQKSDASPKLWIYYTSNLAPGVPARFSGSGSGNSYSLTISSVEGEDAATYYCQQFTSSPWTFGGGTKLEIK" recorded_result=2.21

## Task # input binder: CHA.7.503 (antibody, V domains shown) VH: QVQLQQSGAELAKPGASVKMSCKASGYTFTSNWMHWVKQRPGQGLEWIGYINPSNGYTECNQKFRDKATLSADKSSSTAYMQLNSLTSADSAVYYCALMISAWLPYWGQGTLVTVSA VL: DIVLTQSPASLAISLGQRATISCRASQSVSASSYSYVHWYQQKPGQPPKLLIKYASSLESGVPARFSGSGSGTDFTLNIHPVEEEDTATYYCLHTWEIPYTFGGGTKLEIK ; wanted: its gMFIr Human CD56 int. NK
## Result 3.15
